Origin of values: patent US6365609B1

Overview of reported melting point across a group of compounds:

Solved entries (count: 2):
| COMPOUND | melting point |
| --- | --- |
| CC(C)NC(Nc1cc(C(F)(F)F)cc(C(F)(F)F)c1)=C(C#N)S(C)(=O)=O | 188.5 to 191 °C |
| N#CC(=C(Nc1cc(C(F)(F)F)cc(C(F)(F)F)c1)NC1CCCC1)S(=O)(=O)c1ccc(Cl)cc1 | 199 to 200 °C |

Task: Suppose we examine the compound `C[C@@H](NC(Nc1cc(C(F)(F)F)cc(C(F)(F)F)c1)=C(C#N)S(C)(=O)=O)C(C)(C)C` ; what melting point value has been reported?
Result: 181 to 181.5 °C

Task: Same for CC(NC(Nc1cc(Cl)cc(Cl)c1)=C(C#N)S(=O)(=O)c1ccc(Cl)cc1)C(C)(C)C (stereo not shown)
Result: 163 to 169 °C

----------
Overview of reported melting point across a group of compounds:

Solved entries (count: 3):
| COMPOUND | PROPERTY_MEASURED | ENDPOINT_VALUE |
| --- | --- | --- |
| COc1cc(NC(NC(C)C(C)(C)C)=C(C#N)S(=O)(=O)c2ccc(Cl)cc2)cc(OC)c1 (stereo not shown) [Example 10] | melting point | 177.5 to 179 °C |
| CCC(C)(C)NC(Nc1cc(OC)cc(OC)c1)=C(C#N)S(=O)(=O)c1ccc(Cl)cc1 [Example 23] | melting point | 189 to 190 °C |
| C[C@H](NC(Nc1cc(C(F)(F)F)cc(C(F)(F)F)c1)=C(C#N)S(C)(=O)=O)C(C)(C)C [Example 22] | melting point | 180.5 to 181.5 °C |

From here, focus on the item given below.
Task: Suppose we examine the compound CC(C)NC(Nc1cc(C(F)(F)F)cc(C(F)(F)F)c1)=C(C#N)S(=O)(=O)c1ccc(Cl)cc1 [Example 3] ; what melting point value has been reported?
Result: 197 to 198.5 °C

----------
PROPERTY_MEASURED: melting point

Solved entries (count: 3):
| COMPOUND | ENDPOINT_VALUE |
| --- | --- |
| CCC(C)NC(Nc1cc(Cl)cc(Cl)c1)=C(C#N)S(=O)(=O)c1ccc(Cl)cc1 (stereo not shown) | 150 to 152 °C |
| N#CC(=C(Nc1ccc2c(c1)OCO2)NC1CCC1)S(=O)(=O)c1ccc(Cl)cc1 | 189.5 °C |
| CCC(C)(C)NC(Nc1ccc2ncsc2c1)=C(C#N)S(C)(=O)=O | 112 to 114 °C |

From here, focus on the item given below.
Task: Suppose we examine the compound CC(NC(Nc1cc(C(F)(F)F)cc(C(F)(F)F)c1)=C(C#N)S(C)(=O)=O)C(C)(C)C (stereo not shown) ; what melting point value has been reported?
Result: 184.5 to 188.5 °C

----------
Overview of reported melting point across a group of compounds:

Solved entries (count: 3):
| COMPOUND | melting point |
| --- | --- |
| CC(NC(Nc1cc(C(F)(F)F)cc(C(F)(F)F)c1)=C(C#N)S(=O)(=O)c1ccc(Cl)cc1)C(C)(C)C (stereo not shown) | 155.5 to 158.5 °C |
| CCCNC(Nc1cc(C(F)(F)F)cc(C(F)(F)F)c1)=C(C#N)S(=O)(=O)c1ccc(Cl)cc1 | 196.5 to 198.5 °C |
| CCC(C)(C)NC(Nc1ccc2c(c1)OCO2)=C(C#N)C(=O)C(C)(C)C | 161 to 165 °C |

From here, focus on the item given below.
Task: Suppose we examine the compound `CCC(C)(C)NC(Nc1ccc2c(c1)OCO2)=C(C#N)S(=O)(=O)c1ccc(Cl)cc1` ; what melting point value has been reported?
Result: 169 to 170 °C

----------
PROPERTY_MEASURED: melting point

Solved entries (count: 3):
| COMPOUND | melting point |
| --- | --- |
| C[C@@H](NC(Nc1cc(C(F)(F)F)cc(C(F)(F)F)c1)=C(C#N)S(=O)(=O)c1ccc(Cl)cc1)C(C)(C)C | 164 to 165 °C |
| CC(NC(Nc1cc(F)cc(C(F)(F)F)c1)=C(C#N)S(C)(=O)=O)C(C)(C)C (stereo not shown) | 183 to 185 °C |
| CC(NC(=C(C#N)S(=O)(=O)c1ccc(Cl)cc1)N(C)c1cc(C(F)(F)F)cc(C(F)(F)F)c1)C(C)(C)C (stereo not shown) | 151.5 to 154 °C |

From here, focus on the item given below.
Task: Suppose we examine the compound `COc1cc(NC(NC2CCC2)=C(C#N)S(=O)(=O)c2ccc(Cl)cc2)cc(OC)c1` ; what melting point value has been reported?
Result: 163.5 to 164.5 °C

----------
Overview of reported melting point across a group of compounds:

Task: Suppose we examine the compound N#CC(=C(Nc1cc(C(F)(F)F)cc(C(F)(F)F)c1)NC1CCC1)S(=O)(=O)c1ccc(Cl)cc1 [Example 4] ; what melting point value has been reported?
Result: 190.5 to 193 °C

Task: Same for CC(NC(Nc1ccc(Cl)cc1)=C(C#N)S(C)(=O)=O)C(C)(C)C (stereo not drawn) [Example 34]
Result: 160.5 to 161.5 °C

Task: Same for CCC(C)(C)NC(Nc1cc(C(F)(F)F)cc(C(F)(F)F)c1)=C(C#N)S(=O)(=O)c1ccc(Cl)cc1 [Example 17]
Result: 205 to 207 °C
